- system_under_test: Cyclin Dependent Kinase 2/Cyclin E1 (CDK2-cycE1) (Homo sapiens)
- Construct: purchased ProQinase 0050-0055-1
- procedure_details: CDK2-cycE1 TR-FRET (LANCE) enzyme assay
- Assay type: biochemical
- measurement_conditions: Table O, enzymatic assay; read-out: CDK2 Ki
readout_label: pKi
Give bare numbers, as −log10 of the molar value.

Working through the 3 compounds below one at a time, give pKi for each.
1. CC(C)NC(=O)O[C@@H]1CC[C@H](c2cc(Nc3ccc(-n4cccn4)cn3)n[nH]2)C1
2. COc1cc(=O)n(C)cc1Nc1cc([C@H]2CC[C@@H](OC(=O)NC34CC(C3)C4)C2)[nH]n1
3. CNC(=O)c1ncc(Nc2cc([C@H]3CC[C@@H](OC(=O)NC45CC(C4)C5)C3)[nH]n2)c(C)n1

Result ::
[7.89, 6.89, 8.30]

* * *

- Tested on: SKOV-3 (ATCC HTB-77)
- procedure_details: SKOV-3 EdU incorporation cell proliferation assay (CDK4/6-dependent)
- Assay type: cell-based
- measurement_conditions: Table S
- Experimental: (i) OVISE and SKOV-3 EdU Incorporation Cell Proliferation Assays Ovarian cancer cell proliferation is measured by incorporation of EdU (5-ethynyl-2′-deoxyuridine) into newly synthesized DNA. CDK2-dependent proliferation is determined using OVISE (JCRB1043, CCNE1-amplified) while CDK4/6-dependent effect is determined with SKOV-3 (ATCC HTB-77) which is not CCNE1-amplified. Cells are plated in 384-well plates in RPMI medium supplemented with 10% FBS. […]
readout_label: FS SKOV-3/OVISE increased over Comparator E, (+) sign

sample_smiles: Cc1cc(Nc2cc([C@H]3CC[C@@H](OC(=O)NC(C)(C)C)C3)[nH]n2)nn(C)c1=O
result: (+)
--
sample_smiles: Cn1nc(Nc2cc([C@H]3CC[C@@H](OC(=O)NC(C)(C)C)C3)[nH]n2)ccc1=O
result: (+)
--
sample_smiles: Cn1cc(Nc2cc([C@H]3CC[C@@H](OC(=O)NC(C)(C)C)C3)[nH]n2)ccc1=O
result: (+)

* * *

Hi there, I'd appreciate the recorded FS CDK4/CDK2 for every entry that follows.
- system_under_test: Cyclin Dependent Kinase 2/Cyclin E1 (CDK2-cycE1) (Homo sapiens)
- Construct: purchased ProQinase 0050-0055-1
- procedure_details: CDK2-cycE1 TR-FRET (LANCE) enzyme assay
- Type: biochemical
- measurement_conditions: Table O, fold selectivity, enzymatic CDK4 Ki over CDK2 Ki
One number for each entry.

sample_smiles: Cn1nc(Nc2cc([C@H]3CC[C@@H](OC(=O)NC(C)(C)C(F)F)C3)[nH]n2)ccc1=O
measured_number: 433
//
sample_smiles: CC1(NC(=O)O[C@@H]2CC[C@H](c3cc(Nc4cccnn4)n[nH]3)C2)COC1
measured_number: 88
//
sample_smiles: CNC(=O)c1ccnc(Nc2cc([C@H]3CC[C@@H](OC(=O)NC(C)(C)C)C3)[nH]n2)c1
measured_number: 15

Okay, next one:
FS CDK4/CDK2 measured on CC(C)NC(=O)O[C@@H]1CC[C@H](c2cc(Nc3ccncn3)n[nH]2)C1 = 86

* * *

- system_under_test: Cyclin Dependent Kinase 2/Cyclin E1 (CDK2-cycE1) (Homo sapiens, UniProt P24941)
- Construct: purchased ProQinase 0050-0055-1
- procedure_details: CDK2-cycE1 TR-FRET (LANCE) enzyme assay
- Assay type: biochemical
- measurement_conditions: Table O, fold selectivity, enzymatic CDK4 Ki over CDK2 Ki
Hi there, I'd appreciate the recorded FS CDK4/CDK2 for every entry that follows.

Please review the entries below; each comes with its answer.
molecule: Cn1cc(Nc2cc([C@H]3CC[C@@H](OC(=O)NC(C)(C)C)C3)[nH]n2)ccc1=O
result: 92

molecule: CC1(NC(=O)O[C@@H]2CC[C@H](c3cc(Nc4cccnn4)n[nH]3)C2)CNC1
result: 6

molecule: CNC(=O)c1cnc(Nc2cc([C@H]3CC[C@@H](OC(=O)NC45CC(C4)C5)C3)[nH]n2)c(C)n1
result: 90

molecule: C[C@H](NC(=O)O[C@@H]1CC[C@H](c2cc(Nc3cccnn3)n[nH]2)C1)C(F)(F)F (single isomer, unassigned)
result: 33

Working through the 3 molecules below one at a time, give FS CDK4/CDK2 for each.
1. O=C(NC1(C(F)(F)F)CC1)O[C@@H]1CC[C@H](c2cc(Nc3cccnn3)n[nH]2)C1
2. CC(C)NC(=O)O[C@@H]1CC[C@H](c2cc(Nc3ccnc(N(C)C)n3)n[nH]2)C1
3. CC1(NC(=O)O[C@@H]2CC[C@H](c3cc(Nc4cccnn4)n[nH]3)C2)CC1

Result ::
1. 25
2. 87
3. 60

* * *

- system_under_test: Cyclin Dependent Kinase 2/Cyclin E1 (CDK2-cycE1) (Homo sapiens)
- Construct: purchased ProQinase 0050-0055-1
- procedure_details: CDK2-cycE1 TR-FRET (LANCE) enzyme assay
- Type: biochemical
- measurement_conditions: Table O, fold selectivity, enzymatic CDK1 Ki over CDK2 Ki
- Description: Cyclin Dependent Kinase 1/Cyclin A2 (CDK1-cycA2), Cyclin Dependent Kinase 2/Cyclin E1 (CDK2-cycE1), Cyclin Dependent Kinase 4/Cyclin D3 (CDK4-cycD3) and Cyclin Dependent Kinase 6/Cyclin D3 (CDK6-cycD3) enzyme assays were carried out as described below. […] An Echo acoustic dispenser is used to create dose responses of compound dissolved in DMSO into a 384-well microplate. […] Signal is a ratio of the Acceptor and Donor fluorescence. Inhibition constants are calculated via the Morrison equation. […]
Returns one of y or n; y when FS CDK1/CDK2 is >= 60.

Examples with answers:
molecule: CC(C)NC(=O)O[C@@H]1CC[C@H](c2cc(Nc3cnccn3)n[nH]2)C1 [Example 2E]
classification: y
//
molecule: Cc1cncc(Nc2cc([C@H]3CC[C@@H](OC(=O)NC(C)C)C3)[nH]n2)n1 [Example 2M]
classification: n
//
molecule: C[C@H](NC(=O)O[C@@H]1CC[C@H](c2cc(Nc3ccc(=O)n(C)n3)n[nH]2)C1)c1ccccc1 [Example 6E]
classification: n
//
molecule: Cc1cnccc1Nc1cc([C@H]2CC[C@@H](OC(=O)NC34CC(C3)C4)C2)[nH]n1 [Example 9G]
classification: y
//
molecule: CC(C)NC(=O)O[C@@H]1CC[C@H](c2cc(Nc3cncc(N(C)C)n3)n[nH]2)C1 [Example 2P]
classification: n
//
molecule: Cc1cc(Nc2cc([C@H]3CC[C@@H](OC(=O)NC45CC(C4)C5)C3)[nH]n2)ccn1 [Example 9]
classification: n

Now turn to the next molecule.
Query :: Check this molecule for FS CDK1/CDK2 at or above 60: CN1CCC(NC(=O)O[C@@H]2CC[C@H](c3cc(Nc4cccnn4)n[nH]3)C2)CC1 [Example 3E]
Result :: n

* * *

- system_under_test: Cyclin Dependent Kinase 2/Cyclin E1 (CDK2-cycE1) (Homo sapiens, UniProt P24941)
- Construct: purchased ProQinase 0050-0055-1
- procedure_details: CDK2-cycE1 TR-FRET (LANCE) enzyme assay
- Type: biochemical
- measurement_conditions: Table R, enzymatic assay; read-out: CDK2 Ki
pKi: −log10 of the molar value.
Returns one of 1.0 or 0.0; 1.0 when pKi is >= 9.

sample_smiles: CC(C)(C)NC(=O)O[C@@H]1CC[C@H](c2cc(Nc3ccncc3)n[nH]2)C1
classification: 0.0
//
sample_smiles: Cc1ccc(Nc2cc([C@H]3CC[C@@H](OC(=O)NC(C)(C)C)C3)[nH]n2)cn1
classification: 1.0
//
sample_smiles: CC(C)(C)NC(=O)O[C@@H]1CC[C@H](c2cc(Nc3ccnnc3)n[nH]2)C1
classification: 1.0
//
sample_smiles: Cc1cc(=O)n(C)nc1Nc1cc([C@H]2CC[C@@H](OC(=O)NC(C)(C)C)C2)[nH]n1
classification: 0.0
//
sample_smiles: Cc1ccncc1Nc1cc([C@H]2CC[C@@H](OC(=O)NC(C)(C)C)C2)[nH]n1
classification: 0.0

Now turn to the next compound.
Query :: Check this compound for pKi at or above 9: CNC(=O)c1ccnc(Nc2cc([C@H]3CC[C@@H](OC(=O)NC(C)(C)C)C3)[nH]n2)c1
Result :: 0.0

* * *

- system_under_test: Cyclin Dependent Kinase 2/Cyclin E1 (CDK2-cycE1) (Homo sapiens)
- Construct: purchased ProQinase 0050-0055-1
- procedure_details: CDK2-cycE1 TR-FRET (LANCE) enzyme assay
- Type: biochemical
- measurement_conditions: Table Q, fold selectivity, enzymatic
Label key: Condition met means FS CDK1/CDK2 under 30; Condition not met means FS CDK1/CDK2 of 30 or more.

compound: CC(C)NC(=O)O[C@@H]1CC[C@H](c2cc(Nc3cncnc3)n[nH]2)C1 [Example 2B]
classification: Condition not met

Query :: Does CC(C)NC(=O)O[C@@H]1CC[C@H](c2cc(Nc3ncnc(N(C)C)n3)n[nH]2)C1 [Example 2Q] have FS CDK1/CDK2 strictly under 30?
Result :: Condition met

Query :: Does CC(C)NC(=O)O[C@@H]1CC[C@H](c2cc(Nc3ccnc(N(C)C)n3)n[nH]2)C1 [Example 2I] have FS CDK1/CDK2 strictly under 30?
Result :: Condition met

Query :: Does CC(C)NC(=O)O[C@@H]1CC[C@H](c2cc(Nc3cnccn3)n[nH]2)C1 [Example 2E] have FS CDK1/CDK2 strictly under 30?
Result :: Condition not met

Query :: Does Cc1nc(C#N)ccc1Nc1cc([C@H]2CC[C@@H](OC(=O)NC(C)C)C2)[nH]n1 [Example 2Z] have FS CDK1/CDK2 strictly under 30?
Result :: Condition not met

Query :: Does Cc1nccc(Nc2cc([C@H]3CC[C@@H](OC(=O)NC(C)C)C3)[nH]n2)n1 [Example 2O] have FS CDK1/CDK2 strictly under 30?
Result :: Condition met

Query :: Does COc1nc(C)ncc1Nc1cc([C@H]2CC[C@@H](OC(=O)NC(C)C)C2)[nH]n1 [Example 2Y] have FS CDK1/CDK2 strictly under 30?
Result :: Condition not met

Query :: Does CC(C)NC(=O)O[C@@H]1CC[C@H](c2cc(Nc3ccn(C)c(=O)c3)n[nH]2)C1 [Example 2AA] have FS CDK1/CDK2 strictly under 30?
Result :: Condition met

Query :: Does Cc1cncc(Nc2cc([C@H]3CC[C@@H](OC(=O)NC(C)C)C3)[nH]n2)c1 [Example 2K] have FS CDK1/CDK2 strictly under 30?
Result :: Condition met

Query :: Does CNc1nccc(Nc2cc([C@H]3CC[C@@H](OC(=O)NC(C)C)C3)[nH]n2)n1 [Example 2H] have FS CDK1/CDK2 strictly under 30?
Result :: Condition met
